Entry source: patent US10259779B2

Target: HDAC1 (Homo sapiens, UniProt Q13547)
Sequence (Q13547 whole entry): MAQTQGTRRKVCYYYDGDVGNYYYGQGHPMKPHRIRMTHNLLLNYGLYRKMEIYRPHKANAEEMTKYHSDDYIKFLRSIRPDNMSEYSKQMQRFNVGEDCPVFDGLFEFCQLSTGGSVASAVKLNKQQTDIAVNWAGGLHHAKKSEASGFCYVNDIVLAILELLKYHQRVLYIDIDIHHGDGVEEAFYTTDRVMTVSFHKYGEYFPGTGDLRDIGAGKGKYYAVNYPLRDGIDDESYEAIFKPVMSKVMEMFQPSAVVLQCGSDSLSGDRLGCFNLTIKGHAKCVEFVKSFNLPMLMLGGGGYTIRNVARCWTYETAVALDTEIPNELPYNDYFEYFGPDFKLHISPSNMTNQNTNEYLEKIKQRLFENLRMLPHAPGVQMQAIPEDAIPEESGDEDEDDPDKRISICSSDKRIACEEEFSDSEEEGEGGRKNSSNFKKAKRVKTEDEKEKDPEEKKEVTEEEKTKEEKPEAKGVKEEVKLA
Experiment: ELISA-based HDAC activity assay, HDAC1
Conditions: potency (IC50) to HDAC1, 2, and 3, range over HDAC1, 2, and 3
Quick reference: IC50 of the listed items.
observation.type: IC50

[[record]]
compound = "CCCCCCC(CCCC(=O)Nc1ccccc1)CCC(=O)NO (racemic)"
obs_value = "30 to 38 µM"

[[record]]
compound = "CCC(CCCC(=O)Nc1ccccc1)CCC(=O)NO (racemic)"
obs_value = "4.4 to 6 µM"


* * *

Biological target: HDAC6 (Homo sapiens)
Sequence (Q9UBN7 whole entry): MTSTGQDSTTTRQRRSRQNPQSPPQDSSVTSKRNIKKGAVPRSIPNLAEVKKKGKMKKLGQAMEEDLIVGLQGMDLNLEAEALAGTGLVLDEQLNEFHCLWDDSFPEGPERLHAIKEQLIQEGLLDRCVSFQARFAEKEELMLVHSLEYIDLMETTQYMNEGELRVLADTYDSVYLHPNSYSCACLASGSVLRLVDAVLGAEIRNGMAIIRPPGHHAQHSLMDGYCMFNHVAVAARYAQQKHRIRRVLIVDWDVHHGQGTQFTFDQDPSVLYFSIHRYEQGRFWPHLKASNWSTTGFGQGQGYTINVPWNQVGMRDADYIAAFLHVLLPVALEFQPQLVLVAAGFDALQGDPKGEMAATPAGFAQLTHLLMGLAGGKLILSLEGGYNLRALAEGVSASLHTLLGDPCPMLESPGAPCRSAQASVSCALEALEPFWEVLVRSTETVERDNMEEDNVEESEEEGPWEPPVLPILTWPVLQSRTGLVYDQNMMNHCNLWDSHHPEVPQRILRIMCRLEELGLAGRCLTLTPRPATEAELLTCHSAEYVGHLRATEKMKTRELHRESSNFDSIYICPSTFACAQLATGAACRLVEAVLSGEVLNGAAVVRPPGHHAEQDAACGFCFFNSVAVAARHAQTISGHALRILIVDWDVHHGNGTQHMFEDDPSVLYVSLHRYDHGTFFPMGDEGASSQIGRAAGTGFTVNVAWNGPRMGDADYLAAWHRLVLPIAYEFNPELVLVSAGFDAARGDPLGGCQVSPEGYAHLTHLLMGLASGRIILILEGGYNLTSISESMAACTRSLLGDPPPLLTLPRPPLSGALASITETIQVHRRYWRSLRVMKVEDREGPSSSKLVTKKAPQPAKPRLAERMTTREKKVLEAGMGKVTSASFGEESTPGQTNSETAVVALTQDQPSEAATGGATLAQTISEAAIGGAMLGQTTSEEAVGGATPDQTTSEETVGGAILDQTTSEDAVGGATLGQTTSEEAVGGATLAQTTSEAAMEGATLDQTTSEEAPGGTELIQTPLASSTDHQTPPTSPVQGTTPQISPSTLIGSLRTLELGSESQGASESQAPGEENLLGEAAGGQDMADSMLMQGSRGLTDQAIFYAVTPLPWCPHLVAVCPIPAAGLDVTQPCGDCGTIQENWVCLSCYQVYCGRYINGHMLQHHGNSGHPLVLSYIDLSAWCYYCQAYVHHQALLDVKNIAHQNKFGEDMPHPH
Test: ELISA-based HDAC activity assay, HDAC6
Conditions: HDAC6 over HDAC1; calculated from IC50 values
Mark yes only for HDAC6 fold selectivity HDAC1 values smaller than 400 fold; exact matches and larger values are no.

[[record]]
compound = "O=C(CC[C@@H](CCCC(=O)Nc1ccccc1)Cc1ccccc1)NO [(R)-1f]"
assigned_category = "no"

[[record]]
compound = "CCC(CCCC(=O)Nc1ccccc1)CCC(=O)NO (racemic)"
assigned_category = "yes"

[[record]]
compound = "O=C(CC[C@H](CCCC(=O)Nc1ccccc1)Cc1ccccc1)NO [(S)-1f]"
assigned_category = "no"

[[record]]
compound = "O=C(CCC(CCCC(=O)Nc1ccccc1)Cc1ccccc1)NO (racemic)"
assigned_category = "yes"

[[record]]
compound = "CCCCCCC(CCCC(=O)Nc1ccccc1)CCC(=O)NO (racemic)"
assigned_category = "yes"


* * *

Target: recombinant HDAC8 (Homo sapiens, UniProt Q9BY41)
Construct: purchased BPS Bioscience
Test: Recombinant HDAC8 inhibition (HDAC-Glo)
Format: biochemical
Details: 2.5 × 10^−8 M; read-out: Deacetylase activity (%) HDAC8
Assign MET whenever activity at […] does not fall below 80%; assign NOT MET whenever it does.

[[record]]
molecule = "O=C(CCC(CCCC(=O)Nc1ccccc1)Cc1ccccc1)NO (racemic)"
system_tested = "recombinant HDAC8 (Homo sapiens, UniProt Q9BY41)"
assigned_category = "NOT MET"

[[record]]
molecule = "CCC(CCCC(=O)Nc1ccccc1)CCC(=O)NO (racemic)"
system_tested = "recombinant HDAC8 (Homo sapiens, UniProt Q9BY41)"
assigned_category = "MET"

[[record]]
molecule = "CCCCC(CCCC(=O)Nc1ccccc1)CCC(=O)NO (racemic)"
system_tested = "recombinant HDAC8 (Homo sapiens, UniProt Q9BY41)"
assigned_category = "NOT MET"

[[record]]
molecule = "O=C(CC[C@@H](CCCC(=O)Nc1ccccc1)Cc1ccccc1)NO [(R)-1f]"
system_tested = "recombinant HDAC8 (Homo sapiens, UniProt Q9BY41)"
assigned_category = "NOT MET"


* * *

Listing of recorded activity at 20 µM by entry.
Molecular target: HDAC1 (Homo sapiens, UniProt Q13547)
Assay: ELISA-based HDAC activity assay, HDAC1
Conditions: read-out: Deacetylase activity (%) HDAC1
observation.type: activity at 20 µM (%)

[[record]]
compound = "O=C(CC[C@@H](CCCC(=O)Nc1ccccc1)Cc1ccccc1)NO [(R)-1f]"
obs_value = 53

[[record]]
compound = "CCCCCCC(CCCC(=O)Nc1ccccc1)CCC(=O)NO (racemic)"
obs_value = 67

[[record]]
compound = "O=C(CCC(CCCC(=O)Nc1ccccc1)Cc1ccccc1)NO (racemic)"
obs_value = 58

[[record]]
compound = "O=C(CC[C@H](CCCC(=O)Nc1ccccc1)Cc1ccccc1)NO [(S)-1f]"
obs_value = 68


* * *

Biological target: HDAC6 (Homo sapiens)
Test: ELISA-based HDAC activity assay, HDAC6
Conditions: read-out: Deacetylase activity (%) HDAC6
observation.type: activity at 0.2 µM (%)

[[record]]
compound = "CCCCC(CCCC(=O)Nc1ccccc1)CCC(=O)NO (racemic) [Compound 1c]"
obs_value = 39

[[record]]
compound = "O=C(CCC(CCCC(=O)Nc1ccccc1)Cc1ccccc1)NO (racemic) [Compound 1f]"
obs_value = 45

[[record]]
compound = "O=C(CC[C@H](CCCC(=O)Nc1ccccc1)Cc1ccccc1)NO [(S)-1f]"
obs_value = 37

[[record]]
compound = "O=C(CC[C@@H](CCCC(=O)Nc1ccccc1)Cc1ccccc1)NO [(R)-1f]"
obs_value = 26

[[record]]
compound = "CCCCCCC(CCCC(=O)Nc1ccccc1)CCC(=O)NO (racemic) [Compound 1d]"
obs_value = 42

[[record]]
compound = "CCC(CCCC(=O)Nc1ccccc1)CCC(=O)NO (racemic) [Compound 1b]"
obs_value = 43


* * *

Molecular target: recombinant HDAC8 (Homo sapiens, UniProt Q9BY41)
Construct: purchased BPS Bioscience
Sequence (Q9BY41 1-377): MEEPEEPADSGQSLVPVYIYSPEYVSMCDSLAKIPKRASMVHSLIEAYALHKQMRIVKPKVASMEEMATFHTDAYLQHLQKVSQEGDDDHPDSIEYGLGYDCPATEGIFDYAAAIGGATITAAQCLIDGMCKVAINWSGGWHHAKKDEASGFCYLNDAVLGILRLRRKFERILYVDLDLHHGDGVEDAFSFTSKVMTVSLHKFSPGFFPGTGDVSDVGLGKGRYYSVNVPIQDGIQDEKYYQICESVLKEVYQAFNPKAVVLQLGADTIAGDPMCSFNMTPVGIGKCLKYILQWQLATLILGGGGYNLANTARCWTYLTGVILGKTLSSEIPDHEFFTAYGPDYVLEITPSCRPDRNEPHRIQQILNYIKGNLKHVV
Assay: Recombinant HDAC8 inhibition (HDAC-Glo)
Assay type: biochemical
Kindly apply the following: condition met if IC50 is less than 80 nM, condition not met in every other case.

[[record]]
compound = "O=C(CC[C@@H](CCCC(=O)Nc1ccccc1)Cc1ccccc1)NO [(R)-1f]"
assigned_category = "condition met"

[[record]]
compound = "O=C(CCC(CCCC(=O)Nc1ccccc1)Cc1ccccc1)NO (racemic)"
assigned_category = "condition met"

[[record]]
compound = "O=C(CC[C@H](CCCC(=O)Nc1ccccc1)Cc1ccccc1)NO [(S)-1f]"
assigned_category = "condition not met"

[[record]]
compound = "CCC(CCCC(=O)Nc1ccccc1)CCC(=O)NO (racemic)"
assigned_category = "condition not met"


* * *

Molecular target: HDAC2 (Homo sapiens)
Sequence (Q92769 whole entry): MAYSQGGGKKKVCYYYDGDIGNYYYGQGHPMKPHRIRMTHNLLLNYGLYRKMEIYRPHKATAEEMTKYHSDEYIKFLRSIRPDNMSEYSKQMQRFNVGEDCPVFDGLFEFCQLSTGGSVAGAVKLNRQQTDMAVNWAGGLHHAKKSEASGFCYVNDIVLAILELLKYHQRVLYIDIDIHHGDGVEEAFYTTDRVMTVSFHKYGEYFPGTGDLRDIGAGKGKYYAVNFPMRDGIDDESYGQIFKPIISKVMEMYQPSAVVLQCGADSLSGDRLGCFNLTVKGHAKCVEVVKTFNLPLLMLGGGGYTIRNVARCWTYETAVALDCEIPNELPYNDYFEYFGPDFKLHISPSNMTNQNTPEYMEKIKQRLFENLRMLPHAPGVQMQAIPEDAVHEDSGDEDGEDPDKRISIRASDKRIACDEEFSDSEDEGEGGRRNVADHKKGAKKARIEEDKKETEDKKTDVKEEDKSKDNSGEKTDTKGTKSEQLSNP
Assay: ELISA-based HDAC activity assay, HDAC2
Conditions: read-out: Deacetylase activity (%) HDAC2
activity at 40 µM: recorded values
observation.type: activity at 40 µM (%)

[[record]]
compound = "O=C(CC[C@H](CCCC(=O)Nc1ccccc1)Cc1ccccc1)NO [(S)-1f]"
units = "%"
obs_value = 56

[[record]]
compound = "CCCCCCC(CCCC(=O)Nc1ccccc1)CCC(=O)NO (racemic) [Compound 1d]"
units = "%"
obs_value = 46

[[record]]
compound = "O=C(CC[C@@H](CCCC(=O)Nc1ccccc1)Cc1ccccc1)NO [(R)-1f]"
units = "%"
obs_value = 43

[[record]]
compound = "O=C(CCC(CCCC(=O)Nc1ccccc1)Cc1ccccc1)NO (racemic) [Compound 1f]"
units = "%"
obs_value = 47


* * *

The following compounds are listed with their measured activity at 0.05 µM values.
Target: recombinant HDAC8 (Homo sapiens, UniProt Q9BY41)
Construct: purchased BPS Bioscience
Experiment: Recombinant HDAC8 inhibition (HDAC-Glo)
Format: biochemical
Conditions: 5.0 × 10^−8 M; read-out: Deacetylase activity (%) HDAC8
observation.type: activity at 0.05 µM (%)

[[record]]
compound = "CCCCC(CCCC(=O)Nc1ccccc1)CCC(=O)NO (racemic)"
system_tested = "recombinant HDAC8 (Homo sapiens, UniProt Q9BY41)"
observation_type = "activity at 0.05 µM"
obs_value = 61

[[record]]
compound = "O=C(CC[C@H](CCCC(=O)Nc1ccccc1)Cc1ccccc1)NO [(S)-1f]"
system_tested = "recombinant HDAC8 (Homo sapiens, UniProt Q9BY41)"
observation_type = "activity at 0.05 µM"
obs_value = 75

[[record]]
compound = "CCC(CCCC(=O)Nc1ccccc1)CCC(=O)NO (racemic)"
system_tested = "recombinant HDAC8 (Homo sapiens, UniProt Q9BY41)"
observation_type = "activity at 0.05 µM"
obs_value = 73

[[record]]
compound = "O=C(CCC(CCCC(=O)Nc1ccccc1)Cc1ccccc1)NO (racemic)"
system_tested = "recombinant HDAC8 (Homo sapiens, UniProt Q9BY41)"
observation_type = "activity at 0.05 µM"
obs_value = 51

[[record]]
compound = "CCCCCCC(CCCC(=O)Nc1ccccc1)CCC(=O)NO (racemic)"
system_tested = "recombinant HDAC8 (Homo sapiens, UniProt Q9BY41)"
observation_type = "activity at 0.05 µM"
obs_value = 63

[[record]]
compound = "O=C(CC[C@@H](CCCC(=O)Nc1ccccc1)Cc1ccccc1)NO [(R)-1f]"
system_tested = "recombinant HDAC8 (Homo sapiens, UniProt Q9BY41)"
observation_type = "activity at 0.05 µM"
obs_value = 37


* * *

Molecular target: recombinant HDAC8 (Homo sapiens)
Construct: purchased BPS Bioscience
Assay: Recombinant HDAC8 inhibition (HDAC-Glo)
Assay type: biochemical
Settings: 2.0 × 10^−7 M; read-out: Deacetylase activity (%) HDAC8
Protocol: Inhibitory activity with HDAC8 was measured using the following procedure. In a half area 96-well white opaque plate, recombinant HDAC8 (75 ng, BPS Bioscience) was incubated in HDAC-Glo™ buffer (39 μL) with inhibitor in DMSO (1 μL), or DMSO alone (1 μL) as a control, for 15 minutes at room temperature. […] Luminescent signal was measured 30 minutes after adding the substrate reagent using a Geniosplus Fluorimeter (Tecan) at optimal gain. […]
Some molecules, each annotated with its measured activity at 0.2 µM.
observation.type: activity at 0.2 µM (%)

[[record]]
molecule = "O=C(CCC(CCCC(=O)Nc1ccccc1)Cc1ccccc1)NO (racemic)"
obs_value = 21

[[record]]
molecule = "CCC(CCCC(=O)Nc1ccccc1)CCC(=O)NO (racemic)"
obs_value = 39

[[record]]
molecule = "CCCCC(CCCC(=O)Nc1ccccc1)CCC(=O)NO (racemic)"
obs_value = 28

[[record]]
molecule = "O=C(CC[C@@H](CCCC(=O)Nc1ccccc1)Cc1ccccc1)NO [(R)-1f]"
obs_value = 16

[[record]]
molecule = "O=C(CC[C@H](CCCC(=O)Nc1ccccc1)Cc1ccccc1)NO [(S)-1f]"
obs_value = 42

[[record]]
molecule = "CCCCCCC(CCCC(=O)Nc1ccccc1)CCC(=O)NO (racemic)"
obs_value = 27

